test system: sodium channel; format: binding, Wistar rats; details: rat cerebral cortex membrane, 5 nM [^3 H]batracotoxinin A20-α-benzoate, 1 μM tetrodotoxin, 100 μg/mL scorpion toxin, 37° C., 1 hour
pIC50: −log10 of the molar value. Structures can show the parent of a compound that is named as a salt.
// values below are reported pIC50

molecule	pIC50
COc1cccc(CN2CCN(CC3(C)Cc4c(C)c(N)c(C)c(C)c4O3)CC2)c1 (stereo not shown) [Example 30, trihydrochloride]	6.41
Cc1c(C)c2c(c(C)c1N)CC(C)(CN1CCC(CCOC(c3ccccc3)c3ccccc3)CC1)O2 (stereo not shown) [Example 25, oxalate]	6.47
Cc1c(C)c2c(c(C)c1N)CC(C)(CN1CCC(OC(c3ccccc3)c3ccccc3)CC1)O2 (stereo not shown) [Example 17, oxalate]	6.49
Cc1c(C)c2c(c(C)c1N)CC(C)(CN1CCC(Cc3ccccc3)CC1)O2 (stereo not shown) [Example 5]	6.28
Cc1c(C)c2c(c(C)c1N)CC(C)(CN1CCC(CCCc3ccccc3)CC1)O2 (stereo not shown) [Example 2]	6.55
COc1ccccc1CN1CCN(CC2(C)Cc3c(C)c(N)c(C)c(C)c3O2)CC1 (stereo not shown) [Example 31, trihydrochloride]	6.31
Cc1c(C)c2c(c(C)c1N)CC(C)(CN1CCN(Cc3ccc(Cl)cc3)CC1)O2 (stereo not shown) [Example 33, trihydrochloride]	6.51
